biological target: Lipid bilayer; experiment: Binding affinity to POPC vesicles by surface plasmon resonance spectroscopy
measurement label: Kd (µM)
Report as a plain number; the unit µM is understood.

Example entries begin here.
{"columns": ["molecule smiles", "Kd, µM"],
 "data": [
  ["CC(C)(C)OC(=O)N1CCC[C@H]1C(=O)N1CCCN1C(=O)N1CCC[C@H]1C(=O)N1CCCN1C(=O)N1CCC[C@H]1C(=O)N1CCCN1C(=O)N1CCC[C@H]1C(=O)N1CCCN1C(=O)N1CCC[C@H]1C(=O)N1CCCN1C(=O)N1CCC[C@H]1C(=O)N1CCCN1C(=O)N1CCC[C@H]1C(=O)N1CCCN1C(=O)N1CCC[C@H]1C(=O)N1CCCN1C(=O)OCc1ccccc1", 440],
  ["CC(C)(C)OC(=O)[C@@H]1CCCN1C(=O)N1CCCN1C(=O)[C@@H]1CCCN1C(=O)N1CCCN1C(=O)[C@@H]1CCCN1C(=O)N1CCCN1C(=O)[C@@H]1CCCN1C(=O)N1CCCN1C(=O)[C@@H]1CCCN1C(=O)N1CCCN1C(=O)[C@@H]1CCCN1C(=O)N1CCCN1C(=O)[C@@H]1CCCN1C(=O)N1CCCN1C(=O)[C@@H]1CCCN1C(=O)N1CCCN1C(=O)OCc1ccccc1", 2580],
  ["O=C(NCCO)[C@@H]1CCCN1C(=O)N1CCCN1C(=O)[C@@H]1CCCN1C(=O)N1CCCN1C(=O)[C@@H]1CCCN1C(=O)N1CCCN1C(=O)[C@@H]1CCCN1C(=O)N1CCCN1C(=O)[C@@H]1CCCN1C(=O)N1CCCN1C(=O)[C@@H]1CCCN1C(=O)N1CCCN1C(=O)[C@@H]1CCCN1C(=O)N1CCCN1C(=O)[C@@H]1CCCN1C(=O)N1CCCN1C(=O)OCc1ccccc1", 373]
]}

Here is another molecule to look at.
Kd for "CC(=O)N1CCCN1C(=O)N1CCC[C@H]1C(=O)N1CCCN1C(=O)N1CCC[C@H]1C(=O)N1CCCN1C(=O)N1CCC[C@H]1C(=O)N1CCCN1C(=O)N1CCC[C@H]1C(=O)N1CCCN1C(=O)N1CCC[C@H]1C(=O)N1CCCN1C(=O)N1CCC[C@H]1C(=O)N1CCCN1C(=O)N1CCC[C@H]1C(=O)N1CCCN1C(=O)N1CCC[C@H]1C(=O)NCCO" ?
610
